biological target: Bcl-2-like protein 1 (Homo sapiens); assay: Binding affinity to recombinant Bcl-XL expressed in Escherichia coli BL21 by fluorescence polarization assay
Sequence (Q07817 whole entry): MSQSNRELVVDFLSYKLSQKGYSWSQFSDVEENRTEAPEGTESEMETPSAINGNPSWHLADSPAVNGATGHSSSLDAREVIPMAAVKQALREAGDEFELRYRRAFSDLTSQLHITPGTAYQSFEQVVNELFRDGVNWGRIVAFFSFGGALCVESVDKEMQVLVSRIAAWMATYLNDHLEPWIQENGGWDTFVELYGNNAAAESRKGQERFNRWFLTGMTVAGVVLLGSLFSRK
RECORDED_ENDPOINT: EC50 (µM)
Please respond with the number in µM and leave the unit unwritten.

// query Item: CC[C@H](C)[C@H](NC(=O)[C@H](C)NC(=O)[C@H](CC(C)C)NC(=O)[C@H](CCC(N)=O)NC(=O)[C@H](CCCNC(=N)N)NC(=O)CNC(=O)[C@H](C)NC(=O)[C@H](CCC(N)=O)NC(=O)CN)C(=O)N[C@H](C(=O)NCC(=O)N[C@@H](CC(=O)O)C(=O)N[C@@H](CC(=O)O)C(=O)N[C@H](C(=O)N[C@@H](CC(N)=O)C(=O)N[C@@H](CCCNC(=N)N)C(=O)O)[C@@H](C)CC)[C@@H](C)CC Test system: Bcl-2-like protein 1 (Homo sapiens) Read-out: EC50 Value: ?
// result 15

Recorded values, source ChEMBL document CHEMBL1141655.
